The following binders are listed with their measured kon values.
- measured_target: T1, Clostridium difficile toxin B, soluble full-length (TechLab) (Clostridium difficile, UniProt P18177 2-2366)
- T1 construct: also called tcdB
- T1 sequence (P18177 2-2366 limits assumed): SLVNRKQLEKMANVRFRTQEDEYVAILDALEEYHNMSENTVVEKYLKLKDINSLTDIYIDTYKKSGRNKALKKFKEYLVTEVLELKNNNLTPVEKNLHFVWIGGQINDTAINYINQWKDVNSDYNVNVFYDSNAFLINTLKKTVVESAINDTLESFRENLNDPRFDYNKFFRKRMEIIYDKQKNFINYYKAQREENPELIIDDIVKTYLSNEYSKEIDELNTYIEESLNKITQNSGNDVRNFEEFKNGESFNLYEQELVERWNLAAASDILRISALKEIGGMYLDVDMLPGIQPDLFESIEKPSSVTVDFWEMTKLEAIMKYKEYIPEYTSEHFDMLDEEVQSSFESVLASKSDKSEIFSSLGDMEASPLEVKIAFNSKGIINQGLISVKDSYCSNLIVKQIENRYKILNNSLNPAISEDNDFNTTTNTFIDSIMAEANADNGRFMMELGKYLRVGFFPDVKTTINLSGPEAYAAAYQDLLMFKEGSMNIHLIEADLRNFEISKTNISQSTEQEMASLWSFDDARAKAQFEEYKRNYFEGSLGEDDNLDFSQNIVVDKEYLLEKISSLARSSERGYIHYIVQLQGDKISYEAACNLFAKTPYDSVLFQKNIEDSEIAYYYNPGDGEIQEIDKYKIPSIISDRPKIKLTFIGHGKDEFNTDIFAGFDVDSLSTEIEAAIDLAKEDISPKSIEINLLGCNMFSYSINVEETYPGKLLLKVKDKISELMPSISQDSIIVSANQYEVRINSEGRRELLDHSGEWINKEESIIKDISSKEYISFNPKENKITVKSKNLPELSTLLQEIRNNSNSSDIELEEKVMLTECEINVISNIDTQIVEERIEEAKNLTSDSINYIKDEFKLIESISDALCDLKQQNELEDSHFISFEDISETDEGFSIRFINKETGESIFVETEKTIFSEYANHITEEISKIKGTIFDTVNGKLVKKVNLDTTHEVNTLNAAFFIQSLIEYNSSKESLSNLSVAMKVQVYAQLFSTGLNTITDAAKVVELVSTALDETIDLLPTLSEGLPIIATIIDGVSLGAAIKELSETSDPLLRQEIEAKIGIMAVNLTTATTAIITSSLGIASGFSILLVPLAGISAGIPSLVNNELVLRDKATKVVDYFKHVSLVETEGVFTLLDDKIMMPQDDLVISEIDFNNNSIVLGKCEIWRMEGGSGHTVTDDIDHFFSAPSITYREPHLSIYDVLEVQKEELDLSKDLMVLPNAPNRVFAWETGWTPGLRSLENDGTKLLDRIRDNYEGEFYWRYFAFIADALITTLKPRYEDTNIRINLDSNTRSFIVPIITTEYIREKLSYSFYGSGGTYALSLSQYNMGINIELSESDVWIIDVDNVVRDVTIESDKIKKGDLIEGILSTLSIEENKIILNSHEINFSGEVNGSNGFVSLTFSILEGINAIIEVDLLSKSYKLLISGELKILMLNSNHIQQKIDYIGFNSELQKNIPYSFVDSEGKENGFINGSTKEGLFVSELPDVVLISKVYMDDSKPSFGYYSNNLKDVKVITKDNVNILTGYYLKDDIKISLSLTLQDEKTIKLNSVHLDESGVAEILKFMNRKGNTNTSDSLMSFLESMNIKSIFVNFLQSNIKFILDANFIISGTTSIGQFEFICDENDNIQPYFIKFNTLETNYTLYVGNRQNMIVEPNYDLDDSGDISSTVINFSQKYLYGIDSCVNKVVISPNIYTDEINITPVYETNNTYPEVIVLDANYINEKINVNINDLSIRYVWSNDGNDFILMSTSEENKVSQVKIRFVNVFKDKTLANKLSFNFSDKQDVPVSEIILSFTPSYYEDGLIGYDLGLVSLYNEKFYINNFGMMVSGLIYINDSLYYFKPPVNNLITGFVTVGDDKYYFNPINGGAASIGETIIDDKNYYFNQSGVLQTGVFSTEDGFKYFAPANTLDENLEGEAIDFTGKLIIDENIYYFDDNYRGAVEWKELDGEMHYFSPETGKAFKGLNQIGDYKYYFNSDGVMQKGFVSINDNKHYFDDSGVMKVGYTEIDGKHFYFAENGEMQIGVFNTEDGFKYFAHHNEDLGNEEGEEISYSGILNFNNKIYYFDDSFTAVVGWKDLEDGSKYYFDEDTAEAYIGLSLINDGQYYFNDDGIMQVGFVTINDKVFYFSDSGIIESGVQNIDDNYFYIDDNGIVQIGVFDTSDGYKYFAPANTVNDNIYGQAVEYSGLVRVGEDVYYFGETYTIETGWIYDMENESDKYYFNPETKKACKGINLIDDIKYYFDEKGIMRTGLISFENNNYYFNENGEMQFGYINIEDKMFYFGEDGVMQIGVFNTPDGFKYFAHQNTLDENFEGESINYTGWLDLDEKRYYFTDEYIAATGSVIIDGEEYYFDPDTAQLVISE
- protocol_text: SPR Biacore T200, 37C, mAb capture
Report the figure in M⁻¹ s⁻¹ without appending any unit label.

Sample records with kon:
# binder, unit_descriptor, measured_value
measured = [
    ("H1H3337P (antibody, V domains shown) VH: EVQLVESGGGLVQPGGSLRLSCAASGFTFSIYAMSWVRQAPGKGLEWVSGISGSGGRTYYADSVKGRFTISRDNSKNTLYLQMNSLRVEDTAVYYCARGWELLNFWGQGTLVTVSS VL: DIQMTQSPSSLSASVGDRVTITCRASQGISNNLAWFQQKPGKAPKSLIYAASSLKSGVPSKFSGSGSGTDFTLTINSLQPEDFATYYCHQYNSYPPTFGPGTKVDIKR", "M⁻¹ s⁻¹", 241000),
    ("H1H3401P (antibody, V domains shown) VH: QVQLVESGGGVVQPGRSLRLSCEASGFTFSSYGMHWVRQAPGNGLEWIAVISSDGNNKYYIESVKGRFTMSRDNSKNTLYLQLNSLRTEDTAVYYCATYNWNDDGDGVFDYWGQGTLVTVSS VL: DIQMTQSPSSVSASVGDRVTITCRASQGISNWLAWYQQKPGKAPKLLIYGTSSLQSGVPSRFSGSGSGTDFTLTISSLQPEDFATYYCQQVKSFPYTFGQGTKLEIKR", "M⁻¹ s⁻¹", 420000),
    ("H1H3335P (antibody, V domains shown) VH: EVQLVESGGGLVRPGGSLRLSCAASGFTFRIYAMSWVRQAPGKGLEWVSGISGSGDNTYYTDSVKGRFIISRDNSKSTLYLQMNSLRAEDTAVYYCARGWELLNYWGQGTLVTVSS VL: DIQMTQSPSSLSAFVGDRVTITCRASQDISNHLAWFQQKPGKVPKSLIYAASSLQSGVPSKFSGSGSGTDFTLTISSLQPEDFATYYCQQYGLYPPTFGPGTKVDIKR", "M⁻¹ s⁻¹", 177000),
]

Now look at this entry.
Query :: What does the data say about its kon? Entry: H1H3394P (antibody, V domains shown) VH: QVQLVQSGAEVQKPGASVKVSCKASGYTFTDYYIHWVRQAPGQGLEWMGWINPKTGGTNYAPKFQGRVTMTRDSSIITAYMDLTRLTSDDTAVFYCARRGYNSRWSVFDYWGQGTLVTVSS VL: EIVLTQSPGTLSLSPGERATLSCRASQSVYSNYLAWYQQKRGLAPRLLIYGASSRATGIPDRFSGSGSGTDFTLTISRLEPEDFAVYYCQQHGGSPVTFGGGTKVEIKR
Result :: 486000
